ASSAY_REMARKS: Cell Viability - SK-N-SH (AID 435);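 further: potency means the concentration at half of the fitted maximal effect; compound exposure lasted 40 h at 37 °C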
CONDITION_CONTEXT: SK-N-SH neuroblastoma cell viability qHTS
Records with an inconclusive call do not appear. Calls of active or inactive are those of the source. The call rests on the fitted dose curve.
PROPERTY_LABEL: Potency

Examples from the recorded data:
CNCC(O)c1ccc(O)cc1 (centres undefined) : > 92 µM (inactive)
NCC(O)c1ccc(O)cc1 (centres undefined) : > 92 µM (inactive)
Oc1ccccc1-c1ccccc1 : > 92 µM (inactive)

# context switch: different compound, same Potency
## Task Give reported Potency value for Oc1ccc(Cl)cc1Cc1ccccc1
## Result > 92 µM (inactive)

----------
CONDITION_CONTEXT: Ebola virus entry cell assay, ratio channel
The source made the active and inactive calls. Calls follow the shape of the full dose curve.
PROPERTY_LABEL: AC50

Examples from the recorded data:
CC(=O)CCCCn1c(=O)c2c(ncn2C)n(C)c1=O : inactive
O[C@@H]1CO[C@H]2[C@@H]1OC[C@@H]2O : inactive
CC[C@@H]([C@H](C)O)n1ncn(-c2ccc(N3CCN(c4ccc(OC[C@@H]5CO[C@@](Cn6cncn6)(c6ccc(F)cc6F)C5)cc4)CC3)cc2)c1=O : 8.91 µM (active)
CN(C)CCOC(C)(c1ccccc1)c1ccccn1 (stereo not given) : inactive
COC(=O)CCc1ccc(OCC(O)CNC(C)C)cc1 (stereo not given) : inactive

Go through the items and report each one's AC50.
1. Nc1nnc(-c2cccc(Cl)c2Cl)c(N)n1
2. Cc1ccc(NC(=O)c2ccc(CN3CCN(C)CC3)cc2)cc1Nc1nccc(-c2cccnc2)n1
3. C[n+]1ccccc1/C=N/O
4. CC1(C)S[C@@H]2[C@H](NC(=O)Cc3ccccc3)C(=O)N2[C@H]1C(=O)O (tested in a mixture with another compound)
5. Cc1oncc1C(=O)Nc1ccc(C(F)(F)F)cc1

## Result
["inactive", "28.2 µM (active)", "inactive", "inactive", "inactive"]

----------
SYSTEM_TESTED: Retinoic acid receptor RXR-alpha (Homo sapiens)
ASSAY_REMARKS: qHTS assay for small molecule antagonists of retinoid X receptor alpha signaling (AID 588546);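 further: cells stimulated with 9-cis-retinoic acid as agonist; on the % scale 0 is the no-effect control and ±100 the full control effect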
CONDITION_CONTEXT: HEK293T RXRa-UAS-bla, beta-lactamase ratio, antagonist mode
Results filed as inconclusive are left out.
PROPERTY_LABEL: max response (%)
Give bare numbers, in %.

Examples from the recorded data:
Oc1ccc(Cl)cc1Cc1ccccc1 : -16.2
Cc1cc(SCc2sc(-c3ccc(C(F)(F)F)c(F)c3)nc2C)ccc1OCC(=O)O : -3.24
NCC(O)c1ccc(O)cc1 (stereo not given) : 1.76
Oc1cccc2cccnc12 : -19.8

# context switch: different compound, same max response
## Task Give reported max response value for Nc1ccncc1
## Result -7.1

----------
CONDITION_CONTEXT: Ebola virus entry assay, ratio channel
Active and inactive are the calls of the source. No rule for the calls is given here.
Valid outcomes are listed here; reply with one: active, inactive

Answered cases to consult:
CN1CC(=O)N/C1=N/C(=O)Nc1cccc(Cl)c1 : inactive
CCCCCCCCCCCCCC[N+](C)(C)Cc1ccccc1 : active
CC1(C)S[C@@H]2[C@H](NC(=O)[C@H](N)c3ccccc3)C(=O)N2[C@H]1C(=O)O : inactive
O=NN(CCCl)C(=O)NCCCl : inactive
COC(=O)Nc1nc2ccc(C(=O)c3ccccc3)cc2[nH]1 : active
CC12CC3CC(C)(C1)CC(N)(C3)C2 : active
CCCCCCCCCCCCCCCC[N+](C)(C)CC : active
O=C1Cc2cc(CCN3CCN(c4nsc5ccccc45)CC3)c(Cl)cc2N1 : active

## Task Status in this test for C[C@@H]1C[C@H]2[C@@H]3CCC4=CC(=O)C=C[C@]4(C)[C@@]3(F)[C@@H](O)C[C@]2(C)[C@@]1(O)C(=O)CO ?
## Result inactive

## Task Status in this test for Cn1cc(C2=C(c3cn(C4CCN(Cc5ccccn5)CC4)c4ccccc34)C(=O)NC2=O)c2ccccc21 ?
## Result inactive

## Task Status in this test for Cc1ccsc1C(=CCCN1CCC[C@@H](C(=O)O)C1)c1sccc1C ?
## Result active

Values compiled from PubChem BioAssay (NCATS).
